Target: Neuropeptide Y receptor type 1 (Homo sapiens) (UniProt P25929)
Sequence (whole entry): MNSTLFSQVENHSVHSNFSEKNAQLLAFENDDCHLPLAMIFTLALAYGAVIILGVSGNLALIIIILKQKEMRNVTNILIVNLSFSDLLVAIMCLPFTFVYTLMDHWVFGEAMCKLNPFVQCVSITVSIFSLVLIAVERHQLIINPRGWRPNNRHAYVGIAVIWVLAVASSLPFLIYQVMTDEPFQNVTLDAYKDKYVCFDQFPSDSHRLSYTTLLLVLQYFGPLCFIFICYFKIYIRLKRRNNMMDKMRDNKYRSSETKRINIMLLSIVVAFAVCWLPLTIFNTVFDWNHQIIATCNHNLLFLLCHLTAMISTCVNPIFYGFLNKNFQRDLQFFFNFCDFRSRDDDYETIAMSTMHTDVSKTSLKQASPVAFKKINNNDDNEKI
Test: Antagonist potency for the inhibition of Forskolin stimulated cAMP synthesis in cells expressing cloned Y1 receptors
Type: functional
Property name: Kb (nM)
One number for each entry, in nM.

Exam item: What measured Kb goes with CC[C@H](C)[C@H](N)C(=O)N[C@@H](CC(N)=O)C(=O)N1CCC[C@H]1C(=O)N[C@@H](CSSC[C@@H](NC(=O)[C@@H]1CCCN1C(=O)[C@H](CC(N)=O)NC(=O)[C@@H](N)[C@@H](C)CC)C(=O)N[C@@H](Cc1ccc(O)cc1)C(=O)N[C@@H](CCCN=C(N)N)C(=O)N[C@@H](CC(C)C)C(=O)N[C@@H](CCCN=C(N)N)C(=O)N[C@@H](Cc1ccc(O)cc1)C(=O)OC)C(=O)N[C@@H](Cc1ccc(O)cc1)C(=O)N[C@@H](CCCN=C(N)N)C(=O)N[C@@H](CC(C)C)C(=O)N[C@@H](CCCN=C(N)N)C(=O)N[C@@H](Cc1ccc(O)cc1)C(=O)OC ?
Marked response: 2.3
